# assay.method.text: Clinical pharmacokinetics (literature data)
# condition.summary: human, in vivo, oral, 200 mg
recorded.metric: bioavailability (%)

[[record]]
molecule = "C=C(C)[C@@H]1CCC(C)=C[C@H]1c1c(O)cc(CCCCC)cc1O [CBD, cannabidiol]"
recorded_metric = "bioavailability"
unit_spec = "%"
reported_measurement = 100

